Substrate: O=[N+]([O-])c1ccc(OP(=O)(O)O)cc1
Assay: chromogenic phosphatase assay, A400
Assay type: biochemical, Thermosynechococcus vestitus
Details: 50 mM Tris-HCl pH 8.3, 50 mM NaCl, 1 mM DTT, 2 mM MnCl2, 30 °C, pNPP 0.1-10 mM
Please assign Condition not met whenever kcat/Km is at or above 200 M⁻¹ s⁻¹, and Condition met whenever it is below.

Regarding tPphA (Thermosynechococcus vestitus BP-1; R13Q) (protein) MDVAGLTDCGLIQKSNQDAFYIDEKHQRFFIVADGMGGHAGGEEASRLAVDHIRQYLETHLEDLQHDPVTLLRQAFLAANHAIVEQQRQNSARADMGTTAVVILLDEKGDRAWCAHVGDSRIYRWRKDQLQQITSDHTWIAQAVQLGSLTIEQARQHPWRHVLSQCLGREDLSQIDIQPIDLEPGDRLLLCSDGLTEELTDDVISIYLSEPNVQKAAAALVDAAKTHGGRDNVTVVVISV , kindly confirm whether its kcat/Km is beneath 200 M⁻¹ s⁻¹.
Condition met

Is 200 M⁻¹ s⁻¹ strictly greater than the protein's reported kcat/Km? protein: tPphA (Thermosynechococcus vestitus BP-1; R13K) (protein) MDVAGLTDCGLIKKSNQDAFYIDEKHQRFFIVADGMGGHAGGEEASRLAVDHIRQYLETHLEDLQHDPVTLLRQAFLAANHAIVEQQRQNSARADMGTTAVVILLDEKGDRAWCAHVGDSRIYRWRKDQLQQITSDHTWIAQAVQLGSLTIEQARQHPWRHVLSQCLGREDLSQIDIQPIDLEPGDRLLLCSDGLTEELTDDVISIYLSEPNVQKAAAALVDAAKTHGGRDNVTVVVISV
Condition not met

Threshold test, kcat/Km < 200 M⁻¹ s⁻¹: tPphA (Thermosynechococcus vestitus BP-1; R13G) (protein) MDVAGLTDCGLIGKSNQDAFYIDEKHQRFFIVADGMGGHAGGEEASRLAVDHIRQYLETHLEDLQHDPVTLLRQAFLAANHAIVEQQRQNSARADMGTTAVVILLDEKGDRAWCAHVGDSRIYRWRKDQLQQITSDHTWIAQAVQLGSLTIEQARQHPWRHVLSQCLGREDLSQIDIQPIDLEPGDRLLLCSDGLTEELTDDVISIYLSEPNVQKAAAALVDAAKTHGGRDNVTVVVISV
Condition not met

Hello, I'm reviewing records and need to know if kcat/Km of tPphA (Thermosynechococcus vestitus BP-1; R13Y) (protein) MDVAGLTDCGLIYKSNQDAFYIDEKHQRFFIVADGMGGHAGGEEASRLAVDHIRQYLETHLEDLQHDPVTLLRQAFLAANHAIVEQQRQNSARADMGTTAVVILLDEKGDRAWCAHVGDSRIYRWRKDQLQQITSDHTWIAQAVQLGSLTIEQARQHPWRHVLSQCLGREDLSQIDIQPIDLEPGDRLLLCSDGLTEELTDDVISIYLSEPNVQKAAAALVDAAKTHGGRDNVTVVVISV is below 200 M⁻¹ s⁻¹. Could you check?
Condition met

is_below(kcat/Km, 200 M⁻¹ s⁻¹) for tPphA (Thermosynechococcus vestitus BP-1; R13P) (protein) MDVAGLTDCGLIPKSNQDAFYIDEKHQRFFIVADGMGGHAGGEEASRLAVDHIRQYLETHLEDLQHDPVTLLRQAFLAANHAIVEQQRQNSARADMGTTAVVILLDEKGDRAWCAHVGDSRIYRWRKDQLQQITSDHTWIAQAVQLGSLTIEQARQHPWRHVLSQCLGREDLSQIDIQPIDLEPGDRLLLCSDGLTEELTDDVISIYLSEPNVQKAAAALVDAAKTHGGRDNVTVVVISV ?
Condition not met
